System: HCC-2998 colon
Assay: NCI-60 one-dose screen, 48 h (100 = growth as untreated, 0 = no growth, -100 = all killed)
Conditions: 10 µM unless noted
Description: Growth inhibition of the HCC-2998 human tumor cell line is measured as a screen for anti-cancer activity. Cells are grown in 96 well plates and exposed to the test compound for 48 hours. Compounds are tested at a single concentration, which is 10^-5 M for most compounds. The reported endpoint is percent growth (GI% or GIPRCNT), where numbers from 0 - 100% represent growth inhibition, and numbers from -100% - 0 represent cell death. For example, a value of 40 represents 60% growth inhibition. […]
This is part of a sample that, as a whole, favours compounds with a hit. Of some 83,000 tested, about 20% had one in any assay.
So I've got a bunch of compounds here, and I need their growth values.
Just the number in %, nothing appended.

Measured growth, COc1ccc(-c2cnoc2-c2ccc(OC)cc2O)cc1 : 32

Measured growth, O=C1/C(=C/c2ccc(Cl)cc2)CN(C(=O)CCN2CCC(=NO)CC2)C/C1=C\c1ccc(Cl)cc1 : -76.1

Measured growth, COc1ccc(Cn2cc3c(c2-c2cc(OC)c(OC)c(OC)c2)CCc2cnoc2-3)cc1 : 1.48

Measured growth, COc1ccc(CN2CCc3c(Sc4ccccc4)nc(N)nc3C2=O)c(OC)c1 : 86.2

Measured growth, Cc1ccc(S(=O)(=O)NCCCNc2cc(-c3cn(C(C)(C)C)nc3-c3cccc(O)c3)ccn2)cc1 : 50.3

----------
test system: SNB-75 CNS; test: NCI-60 one-dose screen, 48 h; details: 10 µM
About 83,000 compounds went through this panel and 20% of them were active in at least one assay; those are over-represented in the sample as a whole. Calls of active or inactive are those of the source. How the source made its calls: active means growth percent below 10; inactive means the rest.
Hi! Could you answer with just one of these? active, inactive

Just curious, what result did CN1C=CN(Cc2ccc(-c3ccccn3)nc2)[CH-]1.CN1C=CN(Cc2ccc(-c3ccccn3)nc2)[CH-]1.[Au+3] get here?
inactive

Just curious, what result did Nc1nc(-c2ccccc2)c(CCCOc2ccc(NC(=O)CBr)cc2)c(=O)[nH]1 get here?
inactive

Just curious, what result did CC(=O)Nc1scc[n+]1Cc1ccccc1 get here?
inactive

Just curious, what result did C=C[C@@H]1C[C@@H]2Cc3cc(Cl)ccc3N1O2 get here?
inactive

Just curious, what result did COc1ccc2[nH]c(C(=O)OCc3ccc4c(Cl)cc(Cl)c(O)c4n3)cc2c1 get here?
active

Just curious, what result did COc1cc(/C=C/C(=O)c2c(C)nc3ccccc3c2C)ccc1OCCCCOc1cc2c(cc1OC)C(=O)N1CCC[C@H]1C=N2 get here?
active

Just curious, what result did Fc1ccccc1-c1nc(-c2nc3cc(Cl)c(Cl)cc3[nH]2)c2ccccn12 get here?
inactive

Just curious, what result did CC1(c2ccc(Cl)cc2)OC(=O)CC(=O)O1 get here?
inactive

Just curious, what result did COC(=O)c1cc2cc(-c3ccc(OC)cc3)cnc2[nH]1 get here?
inactive

Just curious, what result did C=C(C)[C@@H]1C[C@@H]2Cc3cc(Cl)ccc3N1O2 get here?
inactive

Just curious, what result did CN1CCN(Cc2ccc(NC(=O)c3nc4ccc5[nH]ncc5c4c4c3CCC4)cc2C(F)(F)F)CC1 get here?
inactive

Just curious, what result did CCC(C)/C(=C\C#N)NCCCN/C(=C/C#N)C(C)CC (configuration not stated) get here?
inactive

Just curious, what result did COc1ccc(Nc2nc(N)nc3c2CCN(Cc2ccc(OC)cc2OC)C3=O)cc1 get here?
inactive

Just curious, what result did COc1ccc2c(c1)[nH]c(=O)c1c3cc(C)c(C)cc3cn21 get here?
inactive

Just curious, what result did Cc1ccc(Nc2nnc(-c3ccc(Cl)cc3)o2)c(C)c1 get here?
inactive

Just curious, what result did CCN(CC)CCOc1ccc(Cl)c(C)c1 get here?
inactive

Just curious, what result did COc1ccc(CN2CCc3c(Sc4ccccc4)nc(N)nc3C2=O)c(OC)c1 get here?
inactive

Just curious, what result did C=C1CCC2C3(C)COC(c4c(OC)cccc4OC)OC3CCC2(C)C1C/C=C1/C(=O)OCC1O (configuration not stated) get here?
inactive

Just curious, what result did NC1=NN(O)C2=CC([N+](=O)[O-])C=CC2=N1 (configuration not stated) get here?
inactive

Just curious, what result did COc1cc(C2CC(c3ccc4c(c3)OCO4)=NN2C(C)=O)cc(OC)c1OC (configuration not stated) get here?
active

Just curious, what result did CCCOC(=O)n1cccc1 get here?
inactive

Just curious, what result did COc1ccc(C(=O)n2nc(/C=C/c3ccc(O)c(OC)c3)cc2/C=C/c2ccc(O)c(OC)c2)cc1 get here?
active
